# melting point per record follows

> print(dat)
                                   molecule         result
1  COc1ccc(NC(=O)NCc2ccc(-n3c(-c4cccnc4N)nc4cccnc43)cc2)cc1  224 to 226 °C
2        CCCSc1nc(C)c(CC(=O)O)n1-c1ccccc1Cl    68 to 71 °C
3         COC(=O)c1cc(OC)c(-n2cccc2)c(OC)c1  145 to 146 °C

Retrieve melting point measured for CCOc1cc2ncc(C#N)c(Nc3cccc(F)c3)c2cc1OCC and print it.
192 to 195 °C

Using the record for ClCc1ccc(OCc2csc(-c3ccccc3)n2)cc1 , state its measured melting point.
98 to 99 °C

Check the records and state melting point for Cc1cc(=O)c(O)co1
152 to 153 °C

# return recorded melting point for input Cc1cc(C)c(S(=O)(=O)N2CCCC2c2ccc(F)cc2)c(C)c1 (racemic)
111 °C

* * *

Parameter: melting point. Scope: all listed entries.

> print(dat)
                                   compound  measurementlabel         result
1  CC(C)CCN1C(=O)C(NC(=O)Oc2ccccc2)C(=O)N(c2ccccc2F)c2ccccc21 (centres undefined)     melting point  226 to 227 °C
2  COC(=O)Nc1cc(Oc2ccc3c(ccn3C(=O)Nc3ccc(CN4CCN(C)CC4)c(C(F)(F)F)c3)c2)ncn1     melting point  138 to 140 °C

Report melting point, nothing else, for this compound: OC[C@H]1COc2cc(Cl)ccc2O1
73 to 75 °C

Output measured melting point for this item: O=C1C(F)N(c2ccc(Oc3ccccc3)cc2)C(=S)N1c1ccccc1 (centres undefined)
126 °C

Supply recorded melting point for CCCCCCCCCCCCCCOCC(O)CO (centres undefined) here.
56 to 57 °C

Supply reported melting point belonging to this compound: COc1cc2c(cc1-c1c(C)nn(C)c1C)-c1c(-c3cccs3)c3c(n1CC2)C(=O)N(C(C)C)CCNC3
250 to 252 °C

Return the recorded melting point value; entry: Cc1c(NC(=O)c2ccc(-c3ccc4c(c3)OCO4)cc2)ccc2cc(CN3CCCC3)cnc12
171 to 172 °C

Assign melting point to the following record: CC(C)(O)COc1c(-c2ccc(S(C)(=O)=O)cc2)cnn(-c2ccc(F)c(Cl)c2)c1=O
122 to 124 °C

Supply reported melting point belonging to this compound: COC(=O)c1nc(-c2cc(OC)c(Cl)cc2F)cc(NC(C)=O)c1Cl
180 to 182 °C

* * *

measurementLabel: melting point (°C)

P = CC(NC(=O)Cc1cc(F)cc(F)c1)C(=O)NC1C(=O)NC(c2ccccn2)c2ccccc21 (stereo not given)
Q = Cc1ccc2c(n1)[nH]c1ccc(C(=O)c3ccccc3)cc12
Given the listed items, does P or Q have the lesser reported melting point? // return label of chosen record
P

* * *

measurementLabel: melting point

Please indicate melting point recorded for NN=CNCCCCNC(=O)[C@@H]1CCCN1C(=O)[C@@H](CCC(N)=O)NS(=O)(=O)c1ccc2ccccc2c1
72 to 74 °C

Hello, please tell me recorded melting point for this one: Oc1ccc(-c2nnc(Nc3ccc(Br)c(Cl)c3)s2)cc1O
220 °C

* * *

measurementLabel: melting point

Supply recorded melting point for CON(Cc1ccc(F)c(C)c1)C(=O)C1=C(O)C(=O)N(C)C1 here.
160 to 164 °C

Query melting point for CC(C)Nc1nc(NC(C)C)nc(OC(F)F)n1
81 to 82 °C

Tell me measured melting point for Cn1c(C(F)(F)F)cc(=O)n(-c2ccc(Cl)c(C=C(Cl)C(=O)O)c2)c1=O please.
216 to 217 °C
